# assay-method-text: qHTS Assay to Find Inhibitors of Chronic Active B-Cell Receptor Signaling: Hit Validation in Renilla Reporter Assay; also: nearly all actives have a fitted effect of over 70% in size
# measurement-setup: TMD8 IkB-Renilla luciferase reporter, NF-kB signaling; series mostly up to 57.5 µM
Out of some 1,200 compounds screened, about 55 (5%) were called active. Inconclusive results (about 15%) are left out. Calls follow the shape of the dose curve; as a rule, active = well fitted inhibition curve with a large enough effect; inconclusive = small, poorly fitted or top-dose-only effect; inactive = no such curve, though single readings can be large or run the other way. Many of the other results were omitted from the sample, so actives are more common in it than they were.
Bench note: report the call from True for active, False for inactive

Recorded results for 3 compounds are shown here.
INSERT INTO assay_data (compound, label) VALUES
  ('COc1ccc(Cc2nccc3cc(OC)c(OC)cc23)cc1OC', 'False'),
  ('CCNC(=O)[C@H]1O[C@@H](n2cnc3c(N)ncnc32)[C@H](O)[C@@H]1O', 'False'),
  ('CC[C@]12CC[C@H](O)CC1=CCC1C2CC[C@]2(C)C(=O)CCC12 (stereo partly specified)', 'False');

Hello, I am checking results. What call was entered for COc1cc2c(c(OC)c1OC)-c1ccc(O)c(=O)cc1C(NC(C)=O)CC2 (stereo unspecified) ?
False

Hello, I am checking results. What call was entered for COc1ccc(C(=O)Oc2cccc3cccnc23)cc1S(=O)(=O)N1CCOCC1 ?
False

Hello, I am checking results. What call was entered for COc1ccc(C=C2C(=O)N(C)C(=O)N(C)C2=O)cc1COc1ccc(NC(C)=O)cc1 ?
False

Hello, I am checking results. What call was entered for O=c1c2ccccc2[se]n1-c1ccccc1 ?
True

Hello, I am checking results. What call was entered for CCCCOCCCn1c(N)c(C(=O)OCCOC)c2nc3ccccc3nc21 ?
False

Hello, I am checking results. What call was entered for CN1C(=O)CN=C(c2ccc(Cl)cc2)c2cc(Cl)ccc21 ?
False

Hello, I am checking results. What call was entered for C/C(=N\N1CCCCC1)c1c(O)[nH]c(=O)[nH]c1=O ?
False

Hello, I am checking results. What call was entered for Cc1cc(C)c(C(=O)CN2CCOCC2)c(C)c1 ?
False
